experiment: Phase solubility studies with HP-β-CD; type: physicochemical; conditions: 25 °C, pH 6.5, with HP-β-CD
reported.endpoint: Kc complexation constant (M⁻¹)
Entry rule: numbers only, all in M⁻¹.

Sample answers from the record:
INSERT INTO results (molecule, recorded_number) VALUES
  ('COc1ccc(C2CC(=NNC(N)=S)c3c(O)cc(O)cc3O2)cc1O (stereo not shown)', 11),
  ('COc1ccc(C2CC(=O)c3c(O)cc(O)cc3O2)cc1O (stereo not shown) [Hesperetin, 3′,5,7-Trihydroxy-4′-methoxyflavanone]', 11933),
  ('COc1ccc(C2C/C(=N\NC(=O)c3ccncc3)c3c(O)cc(O)cc3O2)cc1O (racemic)', 39);

Here's the next entry for you.
Lookup: Identify measured Kc complexation constant associated with COc1ccc(C2C/C(=N\NC(=O)c3ccccc3)c3c(O)cc(O)cc3O2)cc1O (racemic)
Found: 150
